# Test system: PC-3
# Procedure details: 96 hour growth inhibition, PC-3
# Assay type: cell-based
# Assay conditions: Homo sapiens, PC-3, PROSTATE (AR−)
pIC50: −log10 of the molar value.

>  <Chemical smiles>
COc1cc(OC)c(/C=C/S(=O)(=O)Cc2ccc(OC)c(O)c2)c(OC)c1

>  <pIC50>
8.30

$$$$

---

# System: Sk-OV-3
# Procedure details: 96 hour growth inhibition, Sk-OV-3
# Format: cell-based
# Assay conditions: Homo sapiens, Sk-OV-3, OVARIAN
pIC50: −log10 of the molar value.

>  <Chemical smiles>
COc1cc(OC)c(/C=C/S(=O)(=O)Cc2ccc(OC)c(O)c2)c(OC)c1

>  <System name>
Sk-OV-3

>  <pIC50>
8.40

$$$$

---

# System: HCT-116
# Procedure details: 96 hour growth inhibition, HCT-116
# Assay type: cell-based
# Assay conditions: Homo sapiens, HCT-116, COLO-RECTAL
pIC50: −log10 of the molar value.

>  <Chemical smiles>
COc1cc(OC)c(/C=C/S(=O)(=O)Cc2ccc(OC)c(O)c2)c(OC)c1

>  <pIC50>
8.22

$$$$

---

# Test system: H187
# Procedure details: 96 hour growth inhibition, H187
# Type: cell-based
# Assay conditions: Homo sapiens, NCI-H187, H187, SCLC
pIC50: −log10 of the molar value.
Value type: pIC50

>  <Chemical smiles>
COc1cc(OC)c(/C=C/S(=O)(=O)Cc2ccc(OC)c(O)c2)c(OC)c1

>  <System name>
H187

>  <Value type>
pIC50

>  <Recorded value>
8.52

$$$$

---

# System: NCI-H929
# Procedure details: growth inhibition, multiple myeloma cell line NCI-H929
# Assay type: cell-based
# Assay conditions: Homo sapiens, CD38 + CD138 + CD20 −

>  <Chemical smiles>
COc1cc(OC)c(/C=C/S(=O)(=O)Cc2ccc(OC)c(O)c2)c(OC)c1

>  <Unit spec>
nM

>  <IC50>
1

$$$$

---

# Test system: DLD-1
# Procedure details: 96 hour growth inhibition, DLD-1
# Assay type: cell-based
# Assay conditions: Homo sapiens, DLD-1, COLO-RECTAL

>  <Compound>
COc1cc(OC)c(/C=C/S(=O)(=O)Cc2ccc(OC)c(O)c2)c(OC)c1 [ON 013100]

>  <IC50 [nM]>
7

$$$$

---

# Tested on: MOLT-4
# Procedure details: 96 hour growth inhibition, MOLT-4
# Type: cell-based
# Assay conditions: Homo sapiens, MOLT-4, T-lymphoblastic:ALL

>  <Chemical smiles>
COc1cc(OC)c(/C=C/S(=O)(=O)Cc2ccc(OC)c(O)c2)c(OC)c1

>  <System name>
MOLT-4

>  <IC50 (nM)>
1.5

$$$$
